# maps each entry to its residual activity
Biological target: Solute carrier organic anion transporter family member 1B3 (Homo sapiens, UniProt Q9NPD5)
Sequence (Q9NPD5 whole entry): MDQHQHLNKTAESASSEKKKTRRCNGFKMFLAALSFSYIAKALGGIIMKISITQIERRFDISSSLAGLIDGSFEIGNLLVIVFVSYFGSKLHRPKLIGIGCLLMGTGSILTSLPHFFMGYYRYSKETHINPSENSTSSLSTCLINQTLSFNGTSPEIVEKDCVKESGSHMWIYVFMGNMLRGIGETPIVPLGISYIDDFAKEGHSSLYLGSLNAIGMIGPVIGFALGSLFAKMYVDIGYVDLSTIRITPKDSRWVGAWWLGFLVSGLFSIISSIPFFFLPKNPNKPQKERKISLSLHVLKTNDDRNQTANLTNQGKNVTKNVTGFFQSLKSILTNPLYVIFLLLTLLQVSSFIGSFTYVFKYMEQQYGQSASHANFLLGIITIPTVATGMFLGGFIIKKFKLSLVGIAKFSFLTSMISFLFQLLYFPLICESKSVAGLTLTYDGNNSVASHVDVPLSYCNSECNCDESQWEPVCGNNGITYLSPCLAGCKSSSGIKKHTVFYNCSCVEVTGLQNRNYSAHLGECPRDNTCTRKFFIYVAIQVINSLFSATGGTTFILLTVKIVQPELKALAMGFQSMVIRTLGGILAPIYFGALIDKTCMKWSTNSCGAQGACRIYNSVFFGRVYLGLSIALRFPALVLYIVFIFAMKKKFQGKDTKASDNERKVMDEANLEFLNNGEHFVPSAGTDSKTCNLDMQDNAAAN
Settings: chinese hamster, cho, 10 µM
Write the number in % without appending the unit.

CC[N+]1(C)CCCC(OC(=O)C(O)(c2ccccc2)c2ccccc2)C1.[Br-] (stereo not drawn) [PIPENZOLATE BROMIDE]	86.01
NS(=O)(=O)c1cc2c(cc1Cl)NC(C(Cl)Cl)NS2(=O)=O (stereo not drawn) [TRICHLORMETHIAZIDE]	86.79
CC(C)NCC(O)c1ccc(O)c(O)c1.Cl (stereo not drawn) [ISOPROTERENOL HYDROCHLORIDE]	88.72
CC(=O)O[C@@H]1C[C@H]2C(C)(C)C(=O)CC[C@]2(C)[C@H]2CC[C@@]3(C)[C@H](c4ccoc4)OC(=O)[C@H]4O[C@]43[C@@]21C [DIHYDROGEDUNIN]	62.45

What the record says about C=C[C@H]1CN2CC[C@H]1C[C@H]2[C@H](O)c1ccnc2ccccc12 : residual activity is 111.1
